Hey, just so you know, these numbers are from ChEMBL document CHEMBL1127427.

# Assay Comment: Compound was evaluated for oxidation rate constant in brain homogenate
# Format: ADME, tissue-based
Observation Type: k (min⁻¹)

{"columns": ["Structure", "Observed Value"],
 "data": [
  ["C[C@]12CC[C@@H]3c4ccc(O)cc4CC[C@H]3[C@@H]1CC[C@@H]2OC(=O)C1=CN(CC2CC2)C=CC1", 0.00611]
]}

(P) C[C@]12CC[C@@H]3c4ccc(O)cc4CC[C@H]3[C@@H]1CC[C@@H]2OC(=O)C1=CN(Cc2ccccc2)C=CC1
(Q) CC(C)N1C=CCC(C(=O)O[C@H]2CC[C@H]3[C@@H]4CCc5cc(O)ccc5[C@H]4CC[C@]23C)=C1
Req: So which one has the bigger k here, P or Q ? When you have decided, please share the label of that item.
Resp: Q
(Q: 0.0058 min⁻¹, P: 0.00238 min⁻¹)

(P) CCCCCCN1C=CCC(C(=O)O[C@H]2CC[C@H]3[C@@H]4CCc5cc(O)ccc5[C@H]4CC[C@]23C)=C1
(Q) C[C@]12CC[C@@H]3c4ccc(O)cc4CC[C@H]3[C@@H]1CC[C@@H]2OC(=O)C1=CN(CCCO)C=CC1
Req: Hey, which is lower on measured k, P or Q ? When you have decided, please share the label of that item.
Resp: P
(P: 0.00268 min⁻¹, Q: 0.00567 min⁻¹)

(1) CCCN1C=CCC(C(=O)O[C@H]2CC[C@H]3[C@@H]4CCc5cc(O)ccc5[C@H]4CC[C@]23C)=C1
(2) CCN1C=CCC(C(=O)O[C@H]2CC[C@H]3[C@@H]4CCc5cc(O)ccc5[C@H]4CC[C@]23C)=C1
Req: So which one has the bigger k here, 1 or 2 ? When you have decided, please share the label of that item.
Resp: 1
(1: 0.00736 min⁻¹, 2: 0.00353 min⁻¹)
